These measurements were taken from paper PMC6027465.

# measurementTarget: VchCAγ
# conditionParameters: CO2 […], […] TRIS pH […] Na2SO4, […] °C, […] min preincubation
reportedMetric: pKi
Friendly reminder that pKi comes from taking -log10 of the concentration in mol/L.

1. COC(=O)[C@H](Cc1ccccc1)NC(=O)c1ccc(S(N)(=O)=O)cc1; 6.39

I'd like to know its pKi. The compound in question is "NS(=O)(=O)c1ccc(C(=O)N2CCOCC2)cc1"
6.16

// query: COC(=O)[C@H](CC(C)C)NC(=O)c1ccc(S(N)(=O)=O)cc1 [3h, Methyl (4-Sulfamoylbenzoyl)-L-Leucinate]
6.05

// query: C#CCNC(=O)c1ccc(S(N)(=O)=O)cc1 [3c, N-(Prop-2-Yn-1-Yl)-4-Sulfamoylbenzamide]
6.42

----------
# measurementTarget: VchCAβ (Vibrio cholerae)
# Sequence (A0A086SLX8 1-222): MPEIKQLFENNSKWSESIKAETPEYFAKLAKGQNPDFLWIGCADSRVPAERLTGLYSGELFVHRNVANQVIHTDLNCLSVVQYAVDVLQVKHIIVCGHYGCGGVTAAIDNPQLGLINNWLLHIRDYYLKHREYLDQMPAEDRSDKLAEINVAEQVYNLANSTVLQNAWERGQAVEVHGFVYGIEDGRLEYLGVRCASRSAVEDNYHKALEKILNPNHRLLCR
pKi: −log10 of the molar value.
Would you mind labelling by pKi? At or over 6 is rule met, under is rule not met.

Consider the following illustrative entries.
1) COC(=O)C(C)NC(=O)c1ccc(S(N)(=O)=O)cc1 (racemic) [3j, Methyl (4-Sulfamoylbenzoyl)-DL-Alaninate]; rule met
2) NS(=O)(=O)c1ccc(C(=O)N2CCOCC2)cc1 [3d]; rule not met
3) COC(=O)C(NC(=O)c1ccc(S(N)(=O)=O)cc1)C(C)C (racemic) [3f, Methyl (4-Sulfamoylbenzoyl)-DL-Valinate]; rule not met
4) CCNC(=O)c1ccc(S(N)(=O)=O)cc1 [3a, N-Ethyl-4-Sulfamoylbenzamide]; rule not met

Is pKi for CCCNC(=O)c1ccc(S(N)(=O)=O)cc1 [3b, N-Propyl-4-Sulfamoylbenzamide] at or above 6?
rule not met

----------
# measurementTarget: hCA II (Homo sapiens, UniProt P00918)
# Construct: recombinant
In this section we review reported Ki values for a set of compounds.
# number only, unit nM dropped from output

Below, each entry is followed by its recorded Ki result.
1. CCNC(=O)c1ccc(S(N)(=O)=O)cc1 [3a, N-Ethyl-4-Sulfamoylbenzamide]; 5.3
2. COC(=O)C[C@@H](NC(=O)c1ccc(S(N)(=O)=O)cc1)C(=O)OC [3i]; 6.1

Continue with the compound presented below.
What Ki appears in the records for this compound with hCA II (Homo sapiens, UniProt P00918)? COC(=O)C(C)NC(=O)c1ccc(S(N)(=O)=O)cc1 (racemic) [3j, Methyl (4-Sulfamoylbenzoyl)-DL-Alaninate]
6.1

----------
In this section we review reported log10(Ki) values for a set of molecules.
# measurementTarget: VchCAγ
# conditionParameters: CO2 […], […] TRIS pH […] Na2SO4, […] °C, […] min preincubation
# log10 transformed; quantity=Ki; unit=nM

Below, each entry is followed by its recorded log10(Ki) result.
1. COC(=O)C(C)NC(=O)c1ccc(S(N)(=O)=O)cc1 (racemic) [3j, Methyl (4-Sulfamoylbenzoyl)-DL-Alaninate]; 2.43
2. CCOC(=O)CCCNC(=O)c1ccc(S(N)(=O)=O)cc1 [3k, Ethyl 4-(4-Sulfamoylbenzamido)Butanoate]; 2.88
3. COC(=O)C[C@@H](NC(=O)c1ccc(S(N)(=O)=O)cc1)C(=O)OC [3i]; 2.87
4. NS(=O)(=O)c1ccc(C(=O)N2CCCCC2)cc1 [3e]; 2.66
5. COC(=O)C(NC(=O)c1ccc(S(N)(=O)=O)cc1)C(C)C (racemic) [3f, Methyl (4-Sulfamoylbenzoyl)-DL-Valinate]; 3.65
6. COC(=O)CC[C@@H](NC(=O)c1ccc(S(N)(=O)=O)cc1)C(=O)OC [3g]; 2.70
7. CCNC(=O)c1ccc(S(N)(=O)=O)cc1 [3a, N-Ethyl-4-Sulfamoylbenzamide]; 2.97

Continue with the molecule presented below.
What log10(Ki) appears in the records for this molecule with VchCAγ? CCCNC(=O)c1ccc(S(N)(=O)=O)cc1 [3b, N-Propyl-4-Sulfamoylbenzamide]
2.80
